System: HCT116-(CA)13 cells
experimentalConditions: 25 nM methotrexate with 2.5 mM NAC, 5 mM GSH, 250 μM vitamin C or 1.5 μM curcumin
assayReadout: suppression of methotrexate-induced MSI (%)
Value expressed in %; do not type the unit.

CC(=O)N[C@@H](CS)C(=O)O
34
N[C@@H](CCC(=O)N[C@@H](CS)C(=O)NCC(=O)O)C(=O)O
13

Okay, now this compound:
[in] Data request, read-out suppression of methotrexate-induced MSI, for `O=C1O[C@H]([C@@H](O)CO)C(O)=C1O`
[out] 12
